Origin of the recorded values: patent US9045445B2

# Test system: cerebrospinal fluid (CSF) glycine levels
# procedure_summary: CSF-glycine assay after oral administration
# Type: in vivo
# conditions_used: Rattus norvegicus, po, 0.5 h, rats, dose 100 mg/kg, pretreatment 30 mins, read-out: % CSF Glycine Increase versus Vehicle Control
Structures can show the parent of a compound that is named as a salt.
Below, each entry is listed with its recorded change in vivo at 100 mg/kg.
measurement_name: change in vivo at 100 mg/kg (%)

| molecule | assayed_system | unit_annotation | value_measured |
| --- | --- | --- | --- |
| Cn1cnc(S(=O)(=O)N2CCN(C3(CNC(=O)c4c(F)cccc4F)CCC(F)(F)CC3)CC2)c1 [compound 163, Hydrochloride] | cerebrospinal fluid (CSF) glycine levels | % | 280 |
| Cn1cc(S(=O)(=O)N2CCN(C3(CNC(=O)c4c(F)cccc4F)CCC(F)(F)CC3)CC2)nn1 [compound 189, Hydrochloride] | cerebrospinal fluid (CSF) glycine levels | % | 281 |
| Cn1cnc(S(=O)(=O)N2CCN(C3(CNC(=O)c4ccc(F)cc4F)CCC(F)(F)CC3)CC2)c1 [compound 162, Hydrochloride] | cerebrospinal fluid (CSF) glycine levels | % | 207 |
| CCCS(=O)(=O)N1CCN(C2(CNC(=O)c3ccc(C(F)(F)F)cc3Cl)CCC(F)(F)CC2)CC1 [compound 151, Hydrochloride] | cerebrospinal fluid (CSF) glycine levels | % | 204 |

---

# assayed_system: glycine transporter-1 (GlyT-1) (Homo sapiens, UniProt P48067)
# Construct: JAR cells (ATCC#HTB-144), which endogenously express GlyT-1; host or cells: JAR human choriocarcinoma cells
# Sequence (P48067 1-706): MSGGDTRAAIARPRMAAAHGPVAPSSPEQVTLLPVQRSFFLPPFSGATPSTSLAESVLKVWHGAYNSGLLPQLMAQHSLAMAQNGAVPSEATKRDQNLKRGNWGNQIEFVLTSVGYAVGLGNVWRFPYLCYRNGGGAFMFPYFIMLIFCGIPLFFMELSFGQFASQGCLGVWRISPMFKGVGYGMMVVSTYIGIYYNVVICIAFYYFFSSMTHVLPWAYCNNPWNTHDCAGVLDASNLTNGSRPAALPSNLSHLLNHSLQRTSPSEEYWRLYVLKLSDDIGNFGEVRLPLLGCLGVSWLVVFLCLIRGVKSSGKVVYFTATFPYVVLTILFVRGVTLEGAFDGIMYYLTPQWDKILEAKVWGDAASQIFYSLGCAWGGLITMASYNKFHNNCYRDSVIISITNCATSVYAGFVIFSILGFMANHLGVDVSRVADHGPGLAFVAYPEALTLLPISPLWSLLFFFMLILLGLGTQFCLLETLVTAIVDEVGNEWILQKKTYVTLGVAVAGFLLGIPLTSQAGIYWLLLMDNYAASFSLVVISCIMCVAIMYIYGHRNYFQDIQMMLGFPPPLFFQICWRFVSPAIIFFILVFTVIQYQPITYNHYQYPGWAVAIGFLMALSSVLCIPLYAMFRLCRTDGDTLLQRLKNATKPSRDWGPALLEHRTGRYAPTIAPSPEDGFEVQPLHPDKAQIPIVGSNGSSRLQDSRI
# procedure_summary: [14C]glycine uptake assay in JAR cells endogenously expressing GlyT-1 (scintillation proximity)
# Format: cell-based
# conditions_used: JAR cells, [14C]glycine 5 μM, 3 hour incubation; read-out: GlyT-1 IC50
Counter-ions that a name gives are not always drawn.

| compound | IC50 (nM) |
| --- | --- |
| CCCS(=O)(=O)N1CCN(C2(CNC(=O)c3c(N)cccc3Cl)CCC2)CC1 [compound 78, Hydrochloride] | 2440 |
| CCCS(=O)(=O)N1CCN(C2(CNC(=O)c3c(C)cc(C)cc3C)CCCCC2)CC1 [compound 36, Hydrochloride] | 39 |
| CCCS(=O)(=O)N1CCN(C2(CNC(=O)c3c(C)cc(F)cc3OC)CCC(F)(F)CC2)CC1 [compound 137, Hydrochloride] | 28 |
| Cn1cnc(S(=O)(=O)N2CCN(C3(CNC(=O)c4ccc(F)cc4C(F)(F)F)CCC(F)(F)CC3)CC2)c1 [compound 169, Hydrochloride] | 2 |

---

# assayed_system: glycine transporter-2 (GlyT-2) (Homo sapiens, UniProt Q9Y345)
# Sequence (Q9Y345 1-797): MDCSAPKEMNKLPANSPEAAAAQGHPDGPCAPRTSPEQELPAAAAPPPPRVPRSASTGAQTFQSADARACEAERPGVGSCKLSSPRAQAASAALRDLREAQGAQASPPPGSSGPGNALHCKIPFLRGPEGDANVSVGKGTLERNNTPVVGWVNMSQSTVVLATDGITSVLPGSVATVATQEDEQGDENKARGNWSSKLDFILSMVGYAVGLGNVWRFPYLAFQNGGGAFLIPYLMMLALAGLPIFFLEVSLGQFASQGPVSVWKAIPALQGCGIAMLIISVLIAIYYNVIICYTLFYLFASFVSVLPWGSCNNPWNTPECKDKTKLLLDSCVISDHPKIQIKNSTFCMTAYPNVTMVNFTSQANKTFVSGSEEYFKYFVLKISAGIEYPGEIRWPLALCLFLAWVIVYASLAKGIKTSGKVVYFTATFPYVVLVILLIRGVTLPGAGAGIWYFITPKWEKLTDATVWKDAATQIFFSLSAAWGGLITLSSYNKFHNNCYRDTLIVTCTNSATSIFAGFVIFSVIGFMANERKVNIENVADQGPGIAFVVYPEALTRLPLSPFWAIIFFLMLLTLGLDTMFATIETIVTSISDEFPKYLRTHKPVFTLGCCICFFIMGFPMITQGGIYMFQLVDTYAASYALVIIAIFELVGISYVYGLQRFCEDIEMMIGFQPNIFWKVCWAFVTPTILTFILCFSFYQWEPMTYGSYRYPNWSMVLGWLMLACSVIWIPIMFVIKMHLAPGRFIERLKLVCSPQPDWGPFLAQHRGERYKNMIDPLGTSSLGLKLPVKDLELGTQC
# procedure_summary: [14C]glycine uptake assay in HEK-GlyT-2 transfected cells
# conditions_used: HEK-GlyT-2 cells
Counter-ions that a name gives are not always drawn.

| molecule | IC50 |
| --- | --- |
| CCCS(=O)(=O)N1CCN(C2(CNC(=O)c3ccccc3C)CCCCC2)CC1 [compound 42, Hydrochloride] | > 35 µM |
| COc1cc(F)cc(C)c1C(=O)NCC1(N2CCN(S(=O)(=O)c3cn(C)nn3)CC2)CCCC1 [compound 112, Hydrochloride] | > 75 µM |
| CCCS(=O)(=O)N1CCN(C2(CNC(=O)c3c(F)cc(F)cc3F)CCCCC2)CC1 [compound 48, Hydrochloride] | > 75 µM |
| Cn1cc(S(=O)(=O)N2CCN(C3(CNC(=O)c4ccc(F)cc4Cl)CCC(F)(F)CC3)CC2)nn1 [compound 192, Hydrochloride] | > 75 µM |
| CCCS(=O)(=O)N1CCN(C2(CNC(=O)Cc3ccc(Cl)cc3)CCCCC2)CC1 [compound 13, Hydrochloride] | > 75 µM |
| CCCS(=O)(=O)N1CCN(C2(CNC(=O)c3c(Cl)cccc3Cl)CCCCCC2)CC1 [compound 64, Hydrochloride] | > 75 µM |
| CCCS(=O)(=O)N1CCN(C2(CNC(=O)c3cccc(C(F)(F)F)c3Cl)CCCCC2)CC1 [compound 22, Hydrochloride] | 41.3 µM |

---

# assayed_system: glycine transporter-1 (GlyT-1) (Homo sapiens, UniProt P48067)
# Construct: JAR cells (ATCC#HTB-144), which endogenously express GlyT-1; host or cells: JAR human choriocarcinoma cells
# procedure_summary: [14C]glycine uptake assay in JAR cells endogenously expressing GlyT-1 (scintillation proximity)
# Type: cell-based
# conditions_used: JAR cells, [14C]glycine 5 μM, 3 hour incubation; read-out: GlyT-1 IC50
pIC50: −log10 of the molar value. Structures can show the parent of a compound that is named as a salt.
Dear colleague, classification is by pIC50, with ranges listed here: bin 1 (below 7), bin 2 (7 to below 8), bin 3 (8 or more)

| compound | assigned_category |
| --- | --- |
| CC1CN(C2(CNC(=O)c3c(F)cccc3F)CCCCC2)CCN1S(=O)(=O)CC1CC1 (stereo not shown) [compound 117, Hydrochloride] | bin 1 |
| CCCS(=O)(=O)N1CCN(C2(CNC(=O)c3c(OC)cc(F)cc3SC)CCC(F)(F)CC2)CC1 [compound 138, Hydrochloride] | bin 2 |
| O=C(NCC1(N2CCN(S(=O)(=O)CC3CC3)CC2)CCCOC1)c1c(F)cccc1F (stereo not shown) [compound 126, Hydrochloride] | bin 1 |
| CCCS(=O)(=O)N1CCN(C2(CNC(=O)c3ccc(Cl)c(Cl)c3)CCCC2)CC1 [compound 76, Hydrochloride] | bin 1 |
| Cc1cccc(Cl)c1C(=O)NCC1(N2CCN(S(=O)(=O)c3cn(C)cn3)CC2)CCC(F)(F)CC1 [compound 181, Hydrochloride] | bin 3 |
| Cc1cccc(C)c1C(=O)NCC1(N2CCN(S(=O)(=O)c3cn(C)cn3)CC2)CCCCC1 [compound 95, Hydrochloride] | bin 3 |
| Cn1cc(S(=O)(=O)N2CCN(C3(CNC(=O)c4ccc(C(F)(F)F)cc4C(F)(F)F)CCC(F)(F)CC3)CC2)nn1 [compound 221, Hydrochloride] | bin 3 |
| Cl.Cn1cnc(S(=O)(=O)N2CCN(C3(CNC(=O)c4ccc(C(F)(F)F)cc4Cl)CCC(F)(F)CC3)CC2)n1 [compound 281, Hydrochloride] | bin 1 |
| CC(NC(=O)c1ccc(C(F)(F)F)cc1Cl)C1(N2CCN(S(=O)(=O)c3cn(C)nn3)CC2)CCC(F)(F)CC1 (stereo not shown) [compound 223, Hydrochloride] | bin 2 |
| CCCS(=O)(=O)N1CCN(C2(CNC(=O)c3cccc(C(F)(F)F)c3)CCCCC2)CC1 [compound 28, Hydrochloride] | bin 1 |
